# Procedure details: IkB Signaling
# Assay conditions: ABC-DLBCL IkBa-CBG/CBR dual luciferase ratio, 4 h; series mostly up to 57.1 µM
Out of some 110,000 compounds screened, about 40 (0.04%) were called active. Another 22% or so got no clear call; they are omitted. The call rests on the fitted dose curve; in most records, active means well fitted curve in the direction sought with a large enough effect in the signal ratio (not every such curve was filed as active); inconclusive means small, poorly fitted or top-dose-only effect, or a change in a side signal; inactive means flat fitted curve, though single readings scatter; the % refers to the signal ratio. The sample holds actives, similar compounds and a random draw of the others, so the mix is not that of the screen.
Outcome field: choose from 1 = active, 0 = inactive

See these solved cases before continuing.
• Cc1ccc(N2CC(C(=O)Nc3ccc(N(C)C)cc3)CC2=O)cc1Cl (configuration not stated) = 0
• O=C(CCn1c(=O)c2ccccc2n(Cc2ccc(Cl)cc2)c1=O)NCc1ccc2c(c1)OCO2 = 0
• Cc1ccc(Cn2c(CCCNC(=O)C3CCCCC3)nc3ccccc32)cc1 = 0
• CCOC(=O)c1cccc(NC(=O)Cn2cnc3nc4c(cc3c2=O)CCCC4)c1 = 0

Test call for this compound, please: COC(=O)C1=C(c2ccccc2)c2ccccc2S(=O)(=O)N1CC(=O)Nc1ccccc1C(F)(F)F 0

Test call for this compound, please: COc1ccccc1NC(=O)C1=C(C)Nc2ncnn2C1c1sccc1C (configuration not stated) 0

Test call for this compound, please: O=C1C(c2[nH]c3ccccc3c2O)=Nc2ccccc21 1

Test call for this compound, please: CCOc1ccc(N2CC(C)Cn3c2nc2c3c(=O)n(Cc3c(F)cccc3Cl)c(=O)n2C)cc1 (configuration not stated) 0

Test call for this compound, please: Cc1c(-c2nc(-c3ccc4c(c3)OCO4)no2)nnn1-c1ccc(Br)cc1F 0

Test call for this compound, please: CCOc1cc(CNC(=O)c2sc3ncnc(N(C)C4CCCCC4)c3c2C)ccc1OC 0

Test call for this compound, please: CCCOC(=O)Cc1c(O)c2ccccc2[nH]c1=O 0

Test call for this compound, please: CCCC(=O)N1CCN(c2nc3c(OC)ccc(C)c3s2)CC1 0

Test call for this compound, please: Cc1ccc2ncc(C(=O)Nc3ccc(OC(F)(F)F)cc3)c(=O)n2c1 0

* * *

# Procedure details: IkB Signaling
# Assay conditions: ABC-DLBCL IkBa-CBG/CBR dual luciferase ratio, 4 h; series mostly up to 57.1 µM
In all, about 110,000 compounds went through this assay and about 40 (0.04%) were called active. About 22% were inconclusive and are not listed. What follows is part of a selection rich in actives, with near analogues and random picks from the rest.
Property label: outcome

Previously resolved entries follow.
* CN(C)CCN(Cc1ccccc1)S(=O)(=O)c1csc(C(N)=O)c1 | inactive
* Cc1ccc(CNS(=O)(=O)c2ccc(-c3cc(C(F)(F)F)on3)s2)cc1 | inactive
* CC(C)c1ccc(NC(=O)Cn2c3ncccc3c(=O)n2-c2ccccc2)cc1 | inactive
* COC(=O)c1c(NC(=O)c2cc(=O)c3c(C)cc(C)cc3o2)sc2c1CCCC2 | inactive
* O=C(NC1CC(=O)N(c2ccc(F)cc2)C1)c1cccs1 (stereo not given) | inactive
* CCCNC(=O)CCn1nc(-c2ccccc2)c2ccccc2c1=O | inactive
* Cc1ccc(CNC(=O)CCC(=O)N2Cc3ccccc3Oc3ncccc32)cc1 | inactive
* CCc1nc2onc(C)c2c(=O)n1CC(=O)O | inactive
* O=C(CCc1nc(CN2CCN(S(=O)(=O)c3ccc(Cl)cc3)CC2)no1)N1CCCCC1 | inactive

Switching to the query record.
Which value of outcome has been reported for Cc1ccc(C)c(N2C(=O)N(Cc3c(F)cccc3Cl)c3ccccc3S2(=O)=O)c1 in the records? inactive

* * *

# Procedure details: IkB Signaling
# Assay conditions: ABC-DLBCL IkBa-CBG/CBR dual luciferase ratio, 4 h; series mostly up to 57.1 µM
Among all 110,000 compounds or so, about 40 (0.04%) were called active. Roughly 22% stayed inconclusive and do not appear here. The sample as a whole holds a higher share of actives than the screen did.
Property label: outcome

Previously resolved entries follow.
- O=C(NCCc1ccccc1)c1ccc2c(c1)N(Cc1ccccc1)C(=O)c1ccccc1S2(=O)=O: inactive
- COc1ccc(S(=O)(=O)N2CCCCC2)cc1C(=O)NC1CCS(=O)(=O)C1 (stereo not given): inactive
- Cc1cccc(NC(=O)Cn2c(C(F)(F)F)nc3ccccc32)c1C: inactive
- CCN(CC)c1ccc(NS(=O)(=O)c2cc(-c3cc(C)no3)ccc2C)c(C)c1: inactive
- Cc1ccc(C)c(CN2C(=O)c3ccccc3S(=O)c3ccc(C(=O)N4CCOCC4)cc32)c1 (stereo not given): inactive

Which value of outcome has been reported for CC(C)(C)OC(=O)N1CCC(c2c(C(=O)NCc3ccccn3)cnn2-c2ccc(F)cc2)CC1 in the records? inactive

Which value of outcome has been reported for COc1ccc(-c2onc(C)c2C)cc1S(=O)(=O)NCc1cccs1 in the records? inactive

Which value of outcome has been reported for Cc1cc(OC(C)C(=O)Nc2sc3c(c2C(N)=O)CCCC3)ccc1Cl (stereo not given) in the records? inactive

Which value of outcome has been reported for CCc1ccc(NC(=O)CN2C(=O)CCSc3ccc(S(=O)(=O)N4CCCC4)cc32)cc1 in the records? inactive

Which value of outcome has been reported for COCCn1c(CCC(=O)Nc2cc(C)ccc2C)nc2cccnc21 in the records? inactive
